From: patent US9982005B2

tested on: H. influenzae strains; assay: MIC against H. influenzae strains (Table M8); assay type: cell-based; conditions: H. influenzae 49247
MIC H. influenzae (49247) values for the molecules below.

MOLECULE: CC[C@H]1OC(=O)[C@H](C)C(=O)[C@H](C)[C@@H](O[C@@H]2OC(C)CC(N(C)C)C2O)[C@](C)(OC)CC(C)N[C@H](C)[C@H]2N(CCCCn3cc(-c4cccc(N)c4)nn3)C(=O)O[C@]12C (stereo partly shown) [FSM-30690]
UNIT ANNOTATION: µg/mL
MEASUREMENT QUALIFIER: >
MIC H. influenzae (49247): 32

MOLECULE: C=CC[C@@]1(OC)C[C@@H](C)CN[C@H](C)[C@H]2N(CCCCn3cc(-c4ccccn4)nn3)C(=O)O[C@]2(C)[C@@H](CC)OC(=O)[C@H](C)C(=O)[C@H](C)[C@H]1O[C@@H]1OC(C)CC(N(C)C)C1O (stereo partly shown) [FSM-21423]
UNIT ANNOTATION: µg/mL
MEASUREMENT QUALIFIER: =
MIC H. influenzae (49247): 2

MOLECULE: C=CC[C@@]1(OC)C[C@@H](C)CN[C@H](C)[C@H]2N(CCCCn3cc(-c4cccc(N)c4)nn3)C(=O)O[C@]2(C)[C@@H](CC)OC(=O)[C@H](C)C(=O)[C@@H](C)[C@H]1O[C@@H]1OC(C)CC(N(C)C)C1O (stereo in doubt) [FSM-21368]
UNIT ANNOTATION: µg/mL
MEASUREMENT QUALIFIER: =
MIC H. influenzae (49247): 2

MOLECULE: CCC1OC(=O)C(Cc2cn[nH]c2)C(=O)C(C)C(OC2OC(C)CC(N(C)C)C2O)C(C)(OCC=Cc2cnc3ccccc3c2)CC(C)CNC(C)C2NC(=O)OC12C (mixture of isomers) [FSM-21264]
UNIT ANNOTATION: µg/mL
MEASUREMENT QUALIFIER: =
MIC H. influenzae (49247): 8

----------
test system: Spn1509 S. pneumoniae ermB positive mefA negative; assay: broth dilution MIC, S. pneumoniae Spn1509; assay type: cell-based; settings: Streptococcus pneumoniae; Spn1509 S. pneumoniae ermB positive mefA negative; read-out: MIC
MIC reference

COMPOUND: CC[C@H]1OC(=O)C(C)(F)C(=O)[C@H](C)[C@@H](O[C@@H]2OC(C)CC(N(C)C)C2O)[C@](C)(OC)C[C@@H](C)CN[C@H](C)[C@H]2N(CCCCn3cc(-c4cccc(N)c4)nn3)C(=O)O[C@]12C (stereo partly drawn)
MIC: 0.125 to 0.25 µg/mL
--
COMPOUND: CC[C@H]1OC(=O)[C@H](C)C(=O)[C@H](C)[C@@H](O[C@@H]2OC(C)CC(N(C)C)C2O)[C@](C)(OC)C[C@@H](C)CN[C@H](C)[C@H]2N(CCCCn3cc(-c4cccc(N)n4)nn3)C(=O)O[C@]12C (stereo partly drawn)
MIC: 0.5 to 2 µg/mL
--
COMPOUND: CC[C@H]1OC(=O)C(C)C(=O)[C@@H](C)[C@@H](O[C@@H]2OC(C)CC(N(C)C)C2O)[C@](C)(OC)C[C@@H](C)CN[C@H](C)[C@H]2N(CCCCn3cc(-c4ccccn4)nn3)C(=O)O[C@]12C (stereo partly drawn)
MIC: 4 µg/mL
--
COMPOUND: CC[C@H]1OC(=O)[C@H](C)C(=O)[C@H](C)[C@@H](O[C@@H]2OC(C)CC(N(C)C)C2O)[C@](C)(OC)C[C@@H](C)C(=O)N[C@H](C)[C@H]2N(CCCCn3cc(-c4ccccn4)nn3)C(=O)O[C@]12C (stereo partly drawn)
MIC: > 32 µg/mL
--
COMPOUND: CC[C@H]1OC(=O)C(C)(F)C(=O)[C@@H](C)[C@@H](O[C@@H]2OC(C)CC(N(C)C)C2O)[C@](C)(OC)C[C@@H](C)CN[C@H](C)[C@H]2N(CCCCn3cc(-c4ccccn4)nn3)C(=O)O[C@]12C (stereo partly drawn)
MIC: 8 µg/mL
--
COMPOUND: CC[C@H]1OC(=O)C(C)(F)C(=O)[C@H](C)[C@@H](O[C@@H]2OC(C)CC(N(C)C)C2O)[C@](C)(OC)C[C@@H](C)CN[C@H](C)[C@H]2N(CCCCn3cc(-c4ccccn4)nn3)C(=O)O[C@]12C (stereo partly drawn)
MIC: 0.5 to 8 µg/mL
--
COMPOUND: CC[C@H]1OC(=O)[C@H](C)C(=O)[C@H](C)[C@@H](O[C@@H]2OC(C)CC(N(C)C)C2O)[C@](C)(OC)C[C@@H](C)CN[C@H](C)[C@H]2N(CCCCn3cc(-c4ccccn4)nn3)C(=O)O[C@]12C (stereo partly drawn)
MIC: 0.5 to 2 µg/mL
--
COMPOUND: CC[C@H]1OC(=O)[C@H](C)C(=O)[C@H](C)[C@@H](O[C@@H]2OC(C)CC(N(C)C)C2O)[C@](C)(OC)C[C@@H](C)CN[C@H](C)[C@H]2N(CCCCn3cc(-c4cccc(N)c4)nn3)C(=O)O[C@]12C (stereo partly drawn)
MIC: 0.25 to 2 µg/mL
--
COMPOUND: CC[C@H]1OC(=O)[C@H](C)C(=O)C[C@@H](O[C@@H]2OC(C)CC(N(C)C)C2O)[C@](C)(OC)C[C@@H](C)C(=O)N[C@H](C)[C@H]2N(CCCCn3cc(-c4ccccn4)nn3)C(=O)O[C@]12C (stereo partly drawn)
MIC: > 32 µg/mL

----------
Measured MIC values are reported for all entries that follow.
test system: H. influenzae strains; test: MIC against H. influenzae strains (Table M8); type: cell-based; details: Haemophilus influenzae, H. influenzae 49247; read-out: MIC H. influenzae (49247)
MEASURED PROPERTY: MIC (µg/mL)

MOLECULE: CC[C@H]1OC(=O)[C@H](C)C(=O)[C@H](C)[C@@H](O[C@@H]2OC(C)CC(N(C)C)C2O)[C@](C)(OC)C[C@@H](C)CN[C@H](CCO)[C@H]2N(CCCCn3cc(-c4cccc(N)c4)nn3)C(=O)O[C@]12C (stereo partly shown)
MEASURED PROPERTY: MIC
UNIT ANNOTATION: µg/mL
MEASURED VALUE: 4
--
MOLECULE: CC[C@H]1OC(=O)C(C)C(=O)[C@H](C)[C@@H](O[C@@H]2OC(C)CC(N(C)C)C2O)[C@](C)(OC/C=C/c2cnc3ccccc3c2)C[C@@H](C)CN(C)[C@H](C)[C@H]2NC(=O)O[C@@]21C (stereo partly shown)
MEASURED PROPERTY: MIC
UNIT ANNOTATION: µg/mL
MEASURED VALUE: 2
--
MOLECULE: CC[C@H]1OC(=O)[C@H](C)[C@@H](O[C@H]2C[C@@](C)(OC)[C@@H](O)[C@H](C)O2)[C@H](C)[C@@H](O[C@@H]2O[C@H](C)C[C@H](N(C)C)[C@H]2O)[C@](C)(O)C[C@@H](C)C(=O)[C@H](C)[C@@H](O)[C@]1(C)O [Erythromycin, erythromycin, reference compound]
MEASURED PROPERTY: MIC
UNIT ANNOTATION: µg/mL
MEASURED VALUE: 2
--
MOLECULE: CC[C@H]1OC(=O)[C@H](C)C(=O)[C@H](C)[C@@H](O[C@@H]2OC(C)CC(N(C)C)C2O)[C@](C)(OC)C[C@@H](C)CN[C@H](CCN(C)C)[C@H]2N(CCCCn3cc(-c4cccc(N)c4)nn3)C(=O)O[C@]12C (stereo partly shown)
MEASURED PROPERTY: MIC
UNIT ANNOTATION: µg/mL
MEASURED VALUE: 8

----------
Tested on: H. influenzae strains
Assay: MIC against H. influenzae strains (Table M8)
Assay type: cell-based
Settings: Haemophilus influenzae, H. influenzae 49247; read-out: MIC H. influenzae (49247)
Excerpt: We have collected MIC data for a total of 50 novel macrolides that this platform has produced against over 21 unique strains of B. subtilis, E. coli, S. aureus, S. pneumoniae, and H. influenzae, including several multidrug-resistant strains, with a special focus on macrolide resistant mechanisms (vide supra). Azithromycin was included as a control macrolide. CLSI standard procedures for broth dilution MIC determination were used. […] These genotypes can be constitutive or inducible. […]
Strictly below 1 µg/mL in MIC: y. Otherwise: n.

COMPOUND: CC[C@H]1OC(=O)[C@H](C)C(=O)[C@H](C)[C@@H](O[C@@H]2OC(C)CC(N(C)C)C2O)/C(C)=C/CN(C)[C@H](C)[C@H]2N(CCCCn3cc(-c4cccc(N)c4)nn3)C(=O)O[C@]12C (stereo partly drawn)
CLASSIFICATION: n

COMPOUND: CC[C@H]1OC(=O)[C@H](C)C(=O)[C@H](C)[C@@H](O[C@@H]2OC(C)CC(N(C)C)C2O)[C@](C)(OC)C[C@@H](C)CN(C)[C@H](C)[C@H]2N(CCCCn3cc(-c4cccc(N)c4)nn3)C(=O)O[C@]12C (stereo partly drawn)
CLASSIFICATION: n

COMPOUND: CC[C@H]1OC(=O)C(C)(F)C(=O)[C@H](C)[C@@H](O[C@@H]2OC(C)CC(N(C)C)C2O)[C@](C)(OC)C[C@@H](C)CN(C)[C@H](C)[C@H]2N(CCCCn3cc(-c4cccc(N)c4)nn3)C(=O)O[C@]12C (stereo partly drawn)
CLASSIFICATION: n

COMPOUND: CC[C@H]1OC(=O)[C@H](C)C(=O)[C@H](C)[C@@H](O[C@@H]2OC(C)CC(N(C)C)C2O)[C@](C)(OC)C[C@@H](C)CN[C@H](C)[C@H]2N(CCCCn3cc(-c4cccc(N)c4)nn3)C(=O)O[C@]12C (stereo partly drawn)
CLASSIFICATION: y

COMPOUND: CN(C)c1ccc(O)c2c1C[C@H]1C[C@H]3[C@H](N(C)C)C(O)=C(C(N)=O)C(=O)[C@@]3(O)C(O)=C1C2=O [Minocycline, minocycline, reference compound]
CLASSIFICATION: n

COMPOUND: CC[C@H]1OC(=O)[C@H](C)C(=O)[C@H](C)[C@@H](O[C@@H]2OC(C)CC(N(C)C)C2O)[C@](C)(OC)C[C@@H](C)CN[C@H](C)[C@H]2N(CCCCn3cc(-c4cccc(N)n4)nn3)C(=O)O[C@]12C (stereo partly drawn)
CLASSIFICATION: y
